assayName: in vitro
appliedConditions: rabbit, prk cells, ID50 Urd incorporation
endpointName: IC50

# compound, endpointName, assayValue
measured = [
    ("Nc1ncnc2c1ncn2CCOCP(=O)(O)O [No. 6, 9-(2-phosphonylmethoxyethyl)adenine]", "IC50", "> 400 µg/mL"),
]

###

# EC50 annotations
Test system: Parainfluenza 3
assayName: inhibition of cytopathic effect of parainfluenza 3
Format: cell-based
appliedConditions: Table 3; Vero B cells; read-out: MIC50
endpointName: EC50

# molecule, endpointName, assayValue
data = [
    ("Nc1ncnc2c1ncn2C[C@@H](CO)OCP(=O)(O)O", "EC50", "> 200 µg/mL"),
    ("Nc1ncnc2c1ncn2CCOCP(=O)(O)O", "EC50", "> 400 µg/mL"),
    ("Nc1ncnc2c1ncn2CC(O)COCP(=O)(O)O (racemic)", "EC50", "> 200 µg/mL"),
    ("Nc1ncnc2c1ncn2C[C@H](O)CO [(S)-DHPA, 9-(S)-(2,3-dihydroxypropyl)adenine, reference compound]", "EC50", "25 µg/mL"),
    ("Nc1ncnc2c1ncn2C[C@H](O)COCP(=O)(O)O (racemic)", "EC50", "> 400 µg/mL"),
]

###

Tested on: HSV-1 (strain) McIntyre
assayName: inhibition of cytopathic effect of HSV-1 strain McIntyre
Type: cell-based, herpes simplex virus type 1
appliedConditions: Human alphaherpesvirus 1; Table 4; HSV-1 McIntyre, PRK cells; read-out: MIC50
Label T when EC50 is strictly below 0.2 µg/mL; at or above that, label F.

# compound, targetSystem, qualitativeLabel
measured = [
    ("Nc1ncnc2c1ncn2C[C@H](O)COCP(=O)(O)O (racemic)", "HSV-1 (strain) McIntyre", "F"),
    ("Nc1ncnc2c1ncn2CCOCP(=O)(O)O", "HSV-1 (strain) McIntyre", "F"),
    ("O=c1[nH]c(=O)n([C@H]2C[C@H](O)[C@@H](CO)O2)cc1/C=C/Br [BVDU, (E)-5-(2-bromovinyl)-2'-deoxyuridine, reference compound]", "HSV-1 (strain) McIntyre", "T"),
    ("Nc1nc2c(ncn2COCCO)c(=O)[nH]1 [ACV, aclycovir, reference compound]", "HSV-1 (strain) McIntyre", "T"),
]

###

Test system: Herpes simplex 2 (G)
assayName: inhibition of cytopathic effect of herpes simplex 2 (G)
Assay type: cell-based, herpes simplex virus type 2
appliedConditions: Human alphaherpesvirus 2, PRK, Table 4; HSV-2 G, PRK cells; read-out: MIC50
The compounds listed here are annotated with their EC50.
endpointName: EC50 (µg/mL)

# compound, endpointName, unit, assayValue
data = [
    ("Nc1nc2c(ncn2COCCO)c(=O)[nH]1 [ACV, aclycovir, reference compound]", "EC50", "µg/mL", 0.07),
    ("O=c1[nH]c(=O)n([C@H]2C[C@H](O)[C@@H](CO)O2)cc1I [IDU, 5-iodo-2'-deoxyuridine, reference compound]", "EC50", "µg/mL", 0.2),
    ("O=c1[nH]c(=O)n([C@H]2C[C@H](O)[C@@H](CO)O2)cc1/C=C/Br [BVDU, (E)-5-(2-bromovinyl)-2'-deoxyuridine, reference compound]", "EC50", "µg/mL", 2),
]

###

Entries and their EC50
Tested on: HSV-2 (strain) 196
assayName: inhibition of cytopathic effect of HSV-2 strain 196
Type: cell-based, herpes simplex virus type 2
appliedConditions: Human alphaherpesvirus 2; Table 4; HSV-2 196, PRK cells; read-out: MIC50

# compound, unit, EC50
rows = [
    ("Nc1nc2c(ncn2COCCO)c(=O)[nH]1 [ACV, aclycovir, reference compound]", "µg/mL", 0.07),
    ("Nc1ncnc2c1ncn2CCOCP(=O)(O)O [No. 6, 9-(2-phosphonylmethoxyethyl)adenine]", "µg/mL", 15),
    ("O=c1[nH]c(=O)n([C@H]2C[C@H](O)[C@@H](CO)O2)cc1I [IDU, 5-iodo-2'-deoxyuridine, reference compound]", "µg/mL", 2),
    ("O=c1[nH]c(=O)n([C@H]2C[C@H](O)[C@@H](CO)O2)cc1/C=C/Br [BVDU, (E)-5-(2-bromovinyl)-2'-deoxyuridine, reference compound]", "µg/mL", 70),
]

###

assayName: antimetabolic activity: incorporation of 3H-labeled precursors into primary rabbit kidney cells
appliedConditions: rabbit, prk cells, ID50 dUrd incorporation, (3H-1',2')dUrd

# compound, IC50
measured = [
    ("Nc1ncnc2c1ncn2CC(O)COCP(=O)(O)O (racemic)", "> 400 µg/mL"),
    ("Nc1ncnc2c1ncn2C[C@@H](CO)OCP(=O)(O)O", "74 µg/mL"),
    ("Nc1ncnc2c1ncn2C[C@H](O)COCP(=O)(O)O (racemic)", "> 400 µg/mL"),
    ("Nc1ncnc2c1ncn2C[C@H](O)CO [(S)-DHPA, 9-(S)-(2,3-dihydroxypropyl)adenine, reference compound]", "> 400 µg/mL"),
]

###

# EC50 per entry
Tested on: Measles
assayName: inhibition of cytopathic effect of measles
Assay type: cell-based
appliedConditions: Measles morbillivirus; Table 3; Vero Flow cells; read-out: MIC50

# compound, EC50
measured = [
    ("Nc1ncnc2c1ncn2C[C@H](O)CO [(S)-DHPA, 9-(S)-(2,3-dihydroxypropyl)adenine, reference compound]", "20 µg/mL"),
    ("Nc1ncnc2c1ncn2C[C@H](O)COCP(=O)(O)O (racemic)", "> 400 µg/mL"),
    ("Nc1ncnc2c1ncn2CCOCP(=O)(O)O", "> 400 µg/mL"),
    ("Nc1ncnc2c1ncn2CC(O)COCP(=O)(O)O (racemic)", "> 20 µg/mL"),
    ("Nc1ncnc2c1ncn2C[C@@H](CO)OCP(=O)(O)O", "> 40 µg/mL"),
]

###

assayName: antimetabolic activity: incorporation of 3H-labeled precursors into primary rabbit kidney cells
appliedConditions: rabbit, prk cells, ID50 Urd incorporation, (3H-5)Urd
Below, each entry is listed alongside its reported IC50.

# compound, IC50
rows = [
    ("Nc1ncnc2c1ncn2C[C@H](O)COCP(=O)(O)O (racemic) [No. 3]", "> 400 µg/mL"),
    ("Nc1ncnc2c1ncn2C[C@@H](CO)OCP(=O)(O)O [No. 4]", "> 400 µg/mL"),
    ("Nc1ncnc2c1ncn2C[C@H](O)CO [(S)-DHPA, 9-(S)-(2,3-dihydroxypropyl)adenine, reference compound]", "> 400 µg/mL"),
    ("Nc1ncnc2c1ncn2CC(O)COCP(=O)(O)O (racemic) [No. 2]", "> 400 µg/mL"),
]

###

Test system: Reovirus
assayName: inhibition of cytopathic effect of reovirus
Assay type: cell-based
appliedConditions: Reovirus sp.; Table 3; Vero B cells; read-out: MIC50
endpointName: EC50

# compound, targetSystem, assayValue
records = [
    ("Nc1ncnc2c1ncn2C[C@@H](CO)OCP(=O)(O)O", "Reovirus", "> 40 µg/mL"),
    ("Nc1ncnc2c1ncn2CC(O)COCP(=O)(O)O (racemic)", "Reovirus", "> 200 µg/mL"),
    ("Nc1ncnc2c1ncn2C[C@H](O)CO [(S)-DHPA, 9-(S)-(2,3-dihydroxypropyl)adenine, reference compound]", "Reovirus", "100 µg/mL"),
    ("Nc1ncnc2c1ncn2CCOCP(=O)(O)O", "Reovirus", "> 400 µg/mL"),
    ("Nc1ncnc2c1ncn2C[C@H](O)COCP(=O)(O)O (racemic)", "Reovirus", "> 400 µg/mL"),
]

###

Property: IC50; scope: individual molecules
assayName: antimetabolic activity: incorporation of 3H-labeled precursors into primary rabbit kidney cells
appliedConditions: rabbit, prk cells, ID50 dThd incorporation, (3H-methyl) dThd
endpointName: IC50 (mg/L)

# molecule, unit, censoringOperator, assayValue
measured = [
    ("Nc1ncnc2c1ncn2C[C@@H](CO)OCP(=O)(O)O [No. 4]", "mg/L", "=", 297),
    ("Nc1ncnc2c1ncn2C[C@H](O)CO [(S)-DHPA, 9-(S)-(2,3-dihydroxypropyl)adenine, reference compound]", "mg/L", "=", 350),
    ("Nc1ncnc2c1ncn2C[C@H](O)COCP(=O)(O)O (racemic) [No. 3]", "mg/L", ">", 400),
    ("Nc1ncnc2c1ncn2CC(O)COCP(=O)(O)O (racemic) [No. 2]", "mg/L", "=", 280),
]

###

System: Coxsackie B4
assayName: inhibition of cytopathic effect of Coxsackie B4
Type: cell-based
appliedConditions: Enterovirus B, B4; Table 3; Vero B, HeLa cells; read-out: MIC50
Quick reference: EC50 of the listed items.

# compound, EC50
rows = [
    ("Nc1ncnc2c1ncn2C[C@H](O)CO [(S)-DHPA, 9-(S)-(2,3-dihydroxypropyl)adenine, reference compound]", "130 mg/L"),
    ("Nc1ncnc2c1ncn2C[C@H](O)COCP(=O)(O)O (racemic)", "> 400 mg/L"),
    ("Nc1ncnc2c1ncn2CCOCP(=O)(O)O", "> 200 mg/L"),
    ("Nc1ncnc2c1ncn2C[C@@H](CO)OCP(=O)(O)O", "> 400 mg/L"),
    ("Nc1ncnc2c1ncn2CC(O)COCP(=O)(O)O (racemic)", "> 400 mg/L"),
]
